Source listed as patent US8084457B2.

# targetEntity: CDK9/Cyclin T1 (Homo sapiens)
# Sequence (P50750 whole entry): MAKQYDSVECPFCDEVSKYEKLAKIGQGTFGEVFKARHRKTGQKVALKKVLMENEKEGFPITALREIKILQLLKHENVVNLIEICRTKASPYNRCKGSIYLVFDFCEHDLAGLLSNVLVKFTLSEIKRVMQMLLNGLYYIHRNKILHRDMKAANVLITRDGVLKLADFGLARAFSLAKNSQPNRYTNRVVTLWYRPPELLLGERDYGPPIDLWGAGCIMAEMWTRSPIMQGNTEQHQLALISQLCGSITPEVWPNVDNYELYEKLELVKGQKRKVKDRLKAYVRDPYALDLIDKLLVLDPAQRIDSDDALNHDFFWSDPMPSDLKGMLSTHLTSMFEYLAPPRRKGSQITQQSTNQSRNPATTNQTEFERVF
# Sequence (O60563 whole entry partner): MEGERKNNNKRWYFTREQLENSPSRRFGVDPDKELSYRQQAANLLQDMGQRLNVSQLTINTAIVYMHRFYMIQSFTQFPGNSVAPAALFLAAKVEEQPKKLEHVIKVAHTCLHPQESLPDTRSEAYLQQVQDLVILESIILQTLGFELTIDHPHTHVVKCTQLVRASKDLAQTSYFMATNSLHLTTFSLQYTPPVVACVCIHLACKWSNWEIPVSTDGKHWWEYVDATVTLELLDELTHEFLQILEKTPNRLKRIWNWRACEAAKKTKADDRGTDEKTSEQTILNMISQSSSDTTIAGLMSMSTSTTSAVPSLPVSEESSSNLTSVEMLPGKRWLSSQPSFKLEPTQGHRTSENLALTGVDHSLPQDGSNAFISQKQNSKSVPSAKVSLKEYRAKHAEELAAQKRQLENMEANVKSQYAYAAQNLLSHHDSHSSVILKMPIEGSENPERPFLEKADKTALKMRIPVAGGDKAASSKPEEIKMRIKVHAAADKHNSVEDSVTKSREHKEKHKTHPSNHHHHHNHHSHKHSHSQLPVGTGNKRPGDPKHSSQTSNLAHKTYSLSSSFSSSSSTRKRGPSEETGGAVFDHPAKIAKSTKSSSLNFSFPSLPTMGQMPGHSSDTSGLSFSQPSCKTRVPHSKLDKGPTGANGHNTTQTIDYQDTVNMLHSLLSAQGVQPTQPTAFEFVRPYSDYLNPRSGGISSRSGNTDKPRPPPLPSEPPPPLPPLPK
# testSummary: Kinase assay using CDK9/Cyclin T1
# testParameters: read-out: CDK9 (activity range)
Measured IC50, listed per entry for reference.

Solved cases below.
compound="COc1ccccc1-c1cc(Nc2ccc(NC(=O)[C@H]3CCCN3)cc2)ncn1 [(91)]" endpointresult="1 to 1000 nM"
compound="COc1ccccc1-c1cc(Nc2ccc(NS(=O)(=O)c3ccc(C(C)C)cc3)cc2)ncn1 [(23)]" endpointresult="1 to 1000 nM"

Next up:
IC50 in this record for COc1ccc(-c2cc(Nc3ccc(C)c(NS(C)(=O)=O)c3)ncn2)cc1 [(3)] : 1000 to 10000 nM
